target: UniProt:Q6SZW1; assay: FL-SARM1 cellular lysate assay (NAD/NADH-Glo detection of remaining NAD+, NMN-activated); settings: Activity (μM) (IC50), 11 point curve
Form field: log10 of IC50 (one value per entry).
The common logarithm of IC50 in µM is what is listed.

Recorded results for 8 compounds are shown here.
For the compound shown here, Cc1ccc(NC(=O)N2[C@@H]3C[C@@H](C)C[C@H]2C3)cc1-c1nccnc1F [Example 230] , give the reported log10 of IC50.
-1.40

// lookup log10 of IC50 for Cc1ccc(NC(=O)N2CCCC2c2cnn(C)c2)cc1-c1ccccn1 (racemic) [Example 90]
1.15

I am curious: what log10 of IC50 value has been reported for Cc1ccc(NC(=O)N2C3CCC2c2ncccc23)cc1-c1ccccn1 (stereo not drawn) [Example 100] ?
-0.22

Can you look up the measured log10 of IC50 of Cc1ccc(NC(=O)C(Cc2ncccn2)C2CCC2)cc1-c1ncc(F)cn1 (racemic) [Example 302] for me?
0.48

Report log10 of IC50 for Cc1ccc(NC(=O)[C@H]2CC[C@@H](C)N2c2ccccn2)cc1-c1ncc(F)cn1 [Example 282] please.
0.08

Sample Cc1c(F)cc(NC(=O)N2C3CCCC2C3)cc1-c1ccccn1 [Example 69] — what was its log10 of IC50?
-1.10

Can you share its log10 of IC50? I mean this compound: Cc1ccc(NC(=O)[C@H]2C[C@H]3C[C@H]3N2)cc1-c1ncc(F)cn1 [Example 170]
0.43

Query (compound): Cc1ccc(NC(=O)N2CCCC2c2nccn2C)cc1-c1ccccn1 (racemic) [Example 93] ; field requested: log10 of IC50
1.32

Lab note: next compound to report on.
Using the record for O=C(Nc1ccc(Cl)c(-c2ccccn2)c1)N1C2CCCC1C2 [Example 20] , report its log10 of IC50.
-0.40

----------
target: full-length SARM1 (FL-SARM1) (Homo sapiens); test: FL-SARM1 cellular lysate assay (NAD/NADH-Glo detection of remaining NAD+, NMN-activated); conditions: Activity (μM) (IC50), 11 point curve
Let's look at some compounds and their measured IC50.
Kindly provide the numeric value in µM only, without the unit symbol.

Bench note: what IC50 did Cc1ccc(NC(=O)[C@H]2C[C@H]3C[C@H]3N2c2nccnn2)cc1-c1ncc(F)cn1 show?
2.5

Returns the measured IC50 for the input compound. Input: Cc1ccc(NC(=O)CC2CCC2)cc1-c1ncccc1F
5.3

For the compound Cc1ccc(NC(=O)[C@H]2C[C@H]3C[C@H]3N2c2ncccn2)cc1-c1ncccn1 , what IC50 is on record?
4.2

What measured IC50 goes with COc1nccnc1-c1cc(NC(=O)N2[C@@H]3C[C@@H](C)C[C@H]2C3)ccc1C ?
1

Need IC50, item Cc1ccc(NC(=O)CC2CCC2)cc1-c1ccc(F)cn1
1.4

----------
target: full-length SARM1 (FL-SARM1) (Homo sapiens, UniProt Q6SZW1); assay: FL-SARM1 cellular lysate assay (NAD/NADH-Glo detection of remaining NAD+, NMN-activated); details: Activity (μM) (IC50), 11 point curve
As shown below, each of these molecules has a reported log10 IC50 value.
Would you kindly interpret these values as log10 of IC50 expressed in µM?

May I ask what log10 IC50 has been recorded for Cc1ccc(NC(=O)[C@@H]2C[C@@H]2C(F)(F)F)cc1-c1ccccn1 (racemic) ?
0.49

---
Item O=C(Nc1ccc(C(F)(F)F)c(-c2ncc(F)cn2)c1)N1CCCC2CC2C1 (stereo not shown) has what recorded log10 IC50?
0.38

Consider the molecule Cc1ccc(NC(=O)N2C3CCCC2C3)cc1-c1ncccc1C#N and give its measured log10 IC50.
0.08

So what's the measured log10 IC50 for this one? O=C(Nc1ccc(C(F)(F)F)c(-c2ncc(F)cn2)c1)C1C2CCC1CC2 (stereo not shown)
-0.30

----------
biological target: full-length SARM1 (FL-SARM1) (Homo sapiens); assay: FL-SARM1 cellular lysate assay (NAD/NADH-Glo detection of remaining NAD+, NMN-activated); settings: Activity (μM) (IC50), 11 point curve
test_readout: IC50 (µM)
Reply numerically in µM, unit not repeated.

Some solved cases for reference:
What IC50 value was documented for this molecule, CCOC(C)[C@@]12CC(C[C@@H](C)C1)N2C(=O)Nc1ccc(C)c(-c2ncc(F)cn2)c1 (single isomer, unassigned) [Example 189] ?
1.9

What does the data say about its IC50? Entry: O=C(Nc1ccc(-c2ccccc2)c(-c2ccccn2)c1)[C@@H]1CC1(F)F
38

Continuing:
Endpoint output: IC50 of COCC12CC(C)CC(C1)N2C(=O)Nc1cc(-c2ncccn2)c(C)cc1F (single isomer, unassigned) [Example 200] . Value?
0.1

If you can, please state the reported IC50 value of Cc1ccc(NC(=O)N2C3C[C@@H]2CC[C@@H]3C)cc1-c1ccccn1 (single isomer, unassigned) .
0.06

Record request: IC50 value, item COc1cnnc(-c2cc(NC(=O)N3C4CCCC3C4)c(F)cc2C)c1
0.9

Would you mind telling me what IC50 value was observed for Cc1ccc(NC(=O)[C@@H]2CC2(F)F)cc1-c1ccc(Cl)cn1 ?
2.5

Bench note: what IC50 did CC(=O)N1[C@H](C)CC[C@@H]1C(=O)Nc1ccc(C)c(-c2ncc(F)cn2)c1 show?
1.7

Requested field: IC50. Item: Cc1ccc(NC(=O)N2C3CCC2[C@@H](C)C3)cc1-c1ncc(F)cn1 (single isomer, unassigned) [Example 196]
0.8

Value lookup for IC50; key = CCOC(C)[C@@]12CC(C[C@@H](C)C1)N2C(=O)Nc1ccc(C)c(-c2ncc(F)cn2)c1 (single isomer, unassigned) [Example 188]
0.003

Name the reported IC50 value associated with the molecule Cc1ccc(NC(=O)N2[C@@H]3C[C@@H](C)C[C@H]2C3)cc1-c1cc(OCF)cnn1
0.05

Data request, read-out IC50, for CO[C@@H]1CCCCN(C(=O)Nc2ccc(C(F)(F)F)c(-c3ncc(F)cn3)c2)C1
32

So what's the measured IC50 for this one? Cc1ccc(NC(=O)N2CCCC2c2ccnn2C)cc1-c1ccccn1 (racemic)
12

Fill blank: measured IC50 of the molecule Cc1ccc(NC(=O)[C@H]2CC[C@@H](C)CN2c2ncccn2)cc1-c1ncccn1 (single isomer, unassigned) [Example 206] is ____.
0.7

Please give the measured IC50 for this molecule: Cc1ccc(NC(=O)N2C[C@H]3C[C@@H]2CN3c2ccccc2)cc1-c1ccccn1
7.7

Need IC50 of Cc1ccc(NC(=O)N2C3CCCC2C3)cc1-c1ncc(F)cc1F , thanks.
0.2

----------
Molecular target: full-length SARM1 (FL-SARM1) (Homo sapiens)
Sequence (Q6SZW1 28-724): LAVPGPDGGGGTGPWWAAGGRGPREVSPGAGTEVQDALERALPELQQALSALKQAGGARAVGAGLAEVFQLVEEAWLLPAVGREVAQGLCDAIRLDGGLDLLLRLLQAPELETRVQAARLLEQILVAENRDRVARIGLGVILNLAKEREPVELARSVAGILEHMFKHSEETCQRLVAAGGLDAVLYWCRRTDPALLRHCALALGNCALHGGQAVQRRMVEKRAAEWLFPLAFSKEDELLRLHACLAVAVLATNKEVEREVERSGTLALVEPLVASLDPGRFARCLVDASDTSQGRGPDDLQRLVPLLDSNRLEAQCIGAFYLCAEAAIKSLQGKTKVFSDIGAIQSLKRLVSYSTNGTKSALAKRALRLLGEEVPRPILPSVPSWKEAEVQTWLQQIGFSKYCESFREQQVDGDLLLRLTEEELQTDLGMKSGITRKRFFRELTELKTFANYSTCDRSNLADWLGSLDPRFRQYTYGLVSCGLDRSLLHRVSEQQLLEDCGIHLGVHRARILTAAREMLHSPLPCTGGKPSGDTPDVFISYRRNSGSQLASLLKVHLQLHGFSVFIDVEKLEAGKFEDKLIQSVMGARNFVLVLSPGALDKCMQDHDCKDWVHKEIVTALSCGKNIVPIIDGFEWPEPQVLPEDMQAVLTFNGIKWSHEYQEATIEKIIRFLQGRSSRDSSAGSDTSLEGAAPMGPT
Assay: FL-SARM1 cellular lysate assay (NAD/NADH-Glo detection of remaining NAD+, NMN-activated)
Conditions: Activity (μM) (IC50), 11 point curve
Listed below: log10 IC50 values for each entry.
Annotation: log10 of IC50, µM basis.

Previously resolved entries follow.
Which log10 IC50 is reported for this compound? Cc1ccc(NC(=O)[C@H]2C[C@@H](c3ccccc3)CN2c2ncccn2)cc1-c1ncc(F)cn1
0.83

// returns reported log10 IC50 for input Cc1ccc(NC(=O)[C@H]2CC[C@@H](C)CN2c2ncccn2)cc1-c1ncccn1 (racemic) [Example 327]
-0.30

For Cc1cc(F)c(NC(=O)N2[C@@H]3C[C@@H](C)C[C@H]2C3)cc1-c1cccnn1 , what is its reported log10 IC50?
-1.00

---
Suppose we examine the compound Cc1ccc(NC(=O)[C@H]2CC[C@H]3C[C@H]3N2c2ncccn2)cc1-c1ncc(F)cn1 ; what log10 IC50 value has been reported?
0.30

Param item = CCc1ccc(NC(=O)N2C3CCCC2C3)cc1-c1ccc(F)cn1 ; retrieve measured log10 IC50.
-0.22

Given the compound Cc1ccc(NC(=O)N2CCc3ccccc3C2)cc1-c1ccccn1 , what is its reported log10 IC50?
1.00

Find the recorded log10 IC50 belonging to COC(C)[C@@]12CC(C[C@@H](C)C1)N2C(=O)Nc1ccc(C(F)(F)F)c(-c2nccnn2)c1 (single isomer, unassigned) [Example 212] and report it.
0.98

Reported log10 IC50, compound Cc1ccc(NC(=O)N2C3CCCC2C3)cc1-c1cc(C#N)cnn1 : ____
-0.15

Any idea what log10 IC50 was measured for CCOC(C)[C@@]12CC(C[C@@H](C)C1)N2C(=O)Nc1ccc(C)c(-c2ncc(F)cn2)c1 (single isomer, unassigned) [Example 186] ?
-0.70

Which log10 IC50 value belongs to CO[C@H]1C[C@@H]2C[C@H](C1)N2C(=O)Nc1ccc(C)c(-c2ccccn2)c1 ?
-0.30

Entry under review: Cc1ccc(NC(=O)N2[C@@H]3C[C@@H](C)C[C@H]2C3)cc1-c1ncccn1 . Reported log10 IC50?
-1.40

Record request: log10 IC50 value, item Cc1ccc(NC(=O)N2C3C[C@@H](C)C[C@H]2C3)cc1-c1cncc(F)n1
-1.10
